Reported pIC50 by item:
- study target: MCH receptor (Homo sapiens, UniProt Q99705)
- assay info: High throughput functional screening FLIPR/FDSS6000 (intracellular Ca2+ evoked by MCH)
- Assay type: cell-based
- condition context: FLIPR/FDSS, antagonist activity vs 50 nM MCH; class by percent of control at 10^−7 M or IC50; table after the classification; read-out: class
pIC50: −log10 of the molar value. Counter-ions that a name gives are not always drawn.

Some entries whose results are on file:
compound | pIC50
O=C(N[C@H]1CC[C@@H](Nc2ccc3ccccc3n2)CC1)c1csc([N+](=O)[O-])c1 [Example 3036, hydrochloride] | > 7.30
CN(C)c1ccnc(N[C@H]2CC[C@@H](NC(=O)c3ccc(-c4ccc(Cl)cc4)o3)CC2)n1 [Example 3199, hydrochloride] | > 7.30
CN(C)c1ccnc(N[C@H]2CC[C@@H](NC(=O)c3ccc(-c4ccc(F)cc4)cc3)CC2)n1 [Example 3200, hydrochloride] | < 6.70
Cc1cc(N[C@H]2CC[C@@H](NC(=O)COc3ccc(Cl)c(Cl)c3)CC2)nc2ccccc12 [Example 3101, hydrochloride] | > 7.30

(Q) State its pIC50 for this compound: O=C(N[C@H]1CC[C@@H](Nc2ccc3ccccc3n2)CC1)c1cccc([N+](=O)[O-])c1 [Example 3045, hydrochloride]
(A) > 7.30

(Q) Answer with the recorded pIC50 of O=C(N[C@H]1CC[C@@H](Nc2cc(Cl)c3ccccc3n2)CC1)c1ccc(F)c(F)c1 [Example 3117, hydrochloride] only.
(A) > 7.30

(Q) Identify measured pIC50 corresponding to O=C(N[C@H]1CC[C@@H](Nc2nccc(C(F)(F)F)n2)CC1)c1ccc(F)c(F)c1 [Example 3130, hydrochloride]
(A) < 6.70

(Q) Respond only with pIC50 recorded for CN(C)c1nc(N[C@H]2CC[C@@H](NC(=O)c3cccnc3Oc3ccccc3)CC2)ncc1Br [Example 3141, hydrochloride]
(A) 6.70 to 7.30

(Q) Specify pIC50 for Cc1cc(N[C@H]2CC[C@@H](NC(=O)c3cc(C(F)(F)F)cc(C(F)(F)F)c3)CC2)nc2ccccc12 [Example 3157, hydrochloride] and stop.
(A) 6.70 to 7.30

FYI, the data here is from patent US20050197350A1.
